Source: patent EP4616869A1

Test system: HCT116 (low Pgp expression)
Experiment: Cell viability assay (crystal violet staining), payloads, HCT116
Type: cell-based
Details: HCT116, 48 hours incubation
Non-standard residues stand in square brackets, D forms with d. Residues, ends and D or L forms follow the SMILES beside them. *: point of attachment. Dolaproine = CO[C@@H]([C@@H]1CCCN1)[C@@H](C)C(=O)O; Dil = CC[C@H](C)[C@H](NC)[C@@H](CC(=O)O)OC; X1 = C[C@@H](N*)[C@@H](O)c1ccccc1; NMeV = CN[C@H](C(=O)O)C(C)C
result-type: IC50 (nM)
Give your result in nM as a bare value.

Retrieve IC50 measured for CC[C@H](C)[C@@H]([C@@H](CC(=O)N1CCC[C@H]1[C@H](OC)[C@@H](C)C(=O)N[C@H](C)[C@@H](O)c1ccccc1)OC)N(C)C(=O)[C@@H](NC(=O)[C@@H](NC)C(C)C)C(C)C [MMAE, Monomethyl auristatin E] (H-[NMeV]V[Dil][Dolaproine]-X1) and print it.
2.5
